system: A498 renal; assay: NCI-60 one-dose screen, 48 h; conditions: 10 µM unless noted
The panel holds about 83,000 compounds, 20% with a hit somewhere; the sample as a whole holds those more often. Activity calls are given as the source filed them. The calls were made as follows: active = growth percent below 10; inactive = the rest.
Outcome field: choose from True (active), False (inactive)

Consider the following illustrative entries.
N=C(N)/N=C(\CCc1nc2ccccc2[nH]1)c1nc2ccccc2[nH]1 ... False
Cc1cc(N2CCOCC2)nc(N2CCOCC2)n1 ... False

GET /call?item= `c1ccc(-c2nn[nH]n2)c(-c2ccc(CN3CCN(c4nsc5ccccc45)CC3)cc2)c1` returns the recorded outcome of this test.
False

Further, for `Cc1nn(-c2ccc(Cl)cc2)c2nc3c(nc12)C(=O)C(=O)c1ccccc1-3` ?
False

Further, for `C/C(=C\CCc1ccoc1)CC/C=C(\C)CCCN1CCC(CO)CC1` ?
False

Further, for `COc1ccc2c3c(c(OCCCN(C)C)nc2c1)-c1ccc(Cl)cc1C3=O` ?
False
